- target-desc: human recombinant GCL (Homo sapiens (Human))
- protocol: GCL enzyme profiling assay (ADP-Glo luminescence)
- Type: biochemical
- experimental-conditions: human recombinant GCL 5 nM, 1 h preincubation with ATP; read-out: GCL IC50
Could you please report measured IC50 for the items listed next?

Lookup: Return IC50 measured with human recombinant GCL (Homo sapiens (Human)) given this molecule: CCCCS(=O)(CC[C@H](N)C(=O)OC)=NC(C)=O (some centres unmarked)
Found: > 2000 µM

Lookup: Provide value of IC50 for this record tested with human recombinant GCL (Homo sapiens (Human)): CC(C)(C)CCS(=N)(=O)CC[C@H](N)C(=O)NC1COC1 (some centres unmarked)
Found: > 2000 µM

Lookup: What value of IC50 on human recombinant GCL (Homo sapiens (Human)) does N=S(=O)(CCCC(F)(F)F)CC[C@H](N)c1ncon1 (some centres unmarked) have?
Found: > 2000 µM

Lookup: Item N=S(=O)(CCC1CCCC1)CC[C@H](N)C(=O)O (some centres unmarked) with human recombinant GCL (Homo sapiens (Human)) - IC50?
Found: ≤ 20 µM

Lookup: Query the reported IC50 for human recombinant GCL (Homo sapiens (Human)); item: COC(CC[S@](=N)(=O)CC[C@H](N)C(=O)O)C(F)(F)F (some centres unmarked) [Compound 179]
Found: ≤ 20 µM

----------
For each record, write down the corresponding IC50.
- target-desc: human recombinant GCL (Homo sapiens (Human))
- protocol: GCL enzyme profiling assay (ADP-Glo luminescence)
- Assay type: biochemical
- experimental-conditions: human recombinant GCL, ADP-Glo; read-out: GCL IC50

Lookup: Param readout= IC50; system= human recombinant GCL (Homo sapiens (Human)); entry= N=S(=O)(CC[C@H](N)C(=O)O)CCC(O)(c1ccc(Oc2ccccc2)cn1)C(F)(F)F (stereo partly shown) ; returns value.
Found: ≤ 20 µM

Lookup: Tell me reported IC50 for N=S(=O)(CC[C@H](N)C(=O)O)CCC(O)(c1ccncc1)C(F)(F)F (stereo partly shown) , tested with human recombinant GCL (Homo sapiens (Human)).
Found: 20 to 2000 µM

Lookup: Given the entry N=S(=O)(CC[C@@H](O)C(F)(F)F)CC[C@H](N)C(=O)O (single isomer, unassigned) [Compound 328] , what IC50 was observed with human recombinant GCL (Homo sapiens (Human))?
Found: ≤ 20 µM

Lookup: Short answer please: IC50, human recombinant GCL (Homo sapiens (Human)), entry N=S(=O)(CCC(c1ccc(-c2cc(F)cc(F)c2)cc1)C(F)(F)F)CC[C@H](N)C(=O)O (stereo partly shown)
Found: ≤ 20 µM

----------
- target-desc: human recombinant GCL (Homo sapiens (Human), UniProt P48506)
- Sequence (P48506 whole entry): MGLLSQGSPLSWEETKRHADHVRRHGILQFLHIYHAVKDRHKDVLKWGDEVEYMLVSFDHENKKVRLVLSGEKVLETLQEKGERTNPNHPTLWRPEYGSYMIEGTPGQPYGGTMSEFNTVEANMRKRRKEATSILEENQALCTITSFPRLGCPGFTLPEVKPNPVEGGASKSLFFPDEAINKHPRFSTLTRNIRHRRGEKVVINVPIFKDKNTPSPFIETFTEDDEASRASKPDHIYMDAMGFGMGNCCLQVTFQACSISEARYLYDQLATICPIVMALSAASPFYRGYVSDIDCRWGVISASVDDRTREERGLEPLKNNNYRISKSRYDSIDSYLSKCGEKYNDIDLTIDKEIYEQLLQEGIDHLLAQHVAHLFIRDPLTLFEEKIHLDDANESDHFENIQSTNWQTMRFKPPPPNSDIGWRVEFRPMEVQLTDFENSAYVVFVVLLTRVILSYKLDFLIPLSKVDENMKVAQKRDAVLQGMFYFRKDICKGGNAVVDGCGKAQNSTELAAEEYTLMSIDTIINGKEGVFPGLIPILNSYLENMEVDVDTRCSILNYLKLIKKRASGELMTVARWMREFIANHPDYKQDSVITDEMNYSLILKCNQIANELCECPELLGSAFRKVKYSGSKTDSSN
- protocol: GCL enzyme profiling assay (ADP-Glo luminescence)
- Assay type: biochemical
- experimental-conditions: human recombinant GCL, ADP-Glo; read-out: GCL IC50
pIC50: −log10 of the molar value.
What pIC50 was measured for each of the following?

Lookup: Dear colleague, I am looking for the recorded pIC50 of the following molecule: N=S(=O)(CC[C@H](N)C(=O)O)CCC(O)(c1ccon1)C(F)(F)F (stereo partly shown)
Found: 2.70 to 4.70

Lookup: Need pIC50, item N=S(=O)(CC[C@H](N)C(=O)O)CCC1(C(F)(F)F)CCC1 (stereo partly shown)
Found: ≥ 4.70

Lookup: Endpoint output: pIC50 of N=S(=O)(CCC(c1ccc(-c2ccccc2)cc1O)C(F)(F)F)CC[C@H](N)C(=O)O (stereo partly shown) . Value?
Found: ≥ 4.70

Lookup: Item N=S(=O)(CC[C@H](N)C(=O)O)CCC(O)(c1cc(-c2ccccc2)sn1)C(F)(F)F (stereo partly shown) has what recorded pIC50?
Found: ≥ 4.70

Lookup: Entry N=S(=O)(CC[C@H](N)C(=O)O)CCC(O)(c1ccc(-c2cnco2)cn1)C(F)(F)F (stereo partly shown) : reported pIC50 = ?
Found: 2.70 to 4.70

Lookup: Any idea what pIC50 was measured for N=S(=O)(CC[C@H](N)C(=O)O)CCC(O)(c1cc2ccccc2cn1)C(F)(F)F (stereo partly shown) ?
Found: ≥ 4.70

Lookup: State the recorded pIC50 for this entry: N=S(=O)(CC[C@H](N)C(=O)O)CCC(O)(c1ncccn1)C(F)(F)F (stereo partly shown)
Found: 2.70 to 4.70

Lookup: Query (molecule): N=S(=O)(CC[C@H](N)C(=O)O)CCC(O)(c1ccc(C(F)(F)F)nc1)C(F)(F)F (stereo partly shown) ; field requested: pIC50
Found: 2.70 to 4.70

Lookup: Given the entry N=S(=O)(CCC(c1ccccc1Cl)C(F)(F)F)CC[C@H](N)C(=O)O (stereo partly shown) , report its measured pIC50.
Found: ≥ 4.70

Lookup: Request the reported pIC50 associated with N=S(=O)(CC[C@H](N)C(=O)O)CCC(O)(c1ccc(-c2ccc(F)cc2F)cn1)C(F)(F)F (stereo partly shown)
Found: ≥ 4.70

Lookup: Given Cc1cnn(C2(CCS(=N)(=O)CC[C@H](N)C(=O)O)CCC2)n1 (stereo partly shown) , state its recorded pIC50.
Found: 2.70 to 4.70

Lookup: # get_value(readout='pIC50', item= N=S(=O)(CCC(n1nc2ccccc2n1)C(F)(F)F)CC[C@H](N)C(=O)O (stereo partly shown) )
Found: ≥ 4.70

Lookup: May I ask what pIC50 has been recorded for N=S(=O)(CC[C@H](N)C(=O)O)CCC(O)(CC(F)(F)F)c1ccc(-c2ccc(Cl)cc2Cl)cc1 (stereo partly shown) ?
Found: ≥ 4.70

Lookup: Any idea what its pIC50 is? The molecule is N[C@@H](CCS(=O)(=O)CCC(O)(c1ccc(-c2ccc(Cl)cc2Cl)cn1)C(F)(F)F)C(=O)O (stereo partly shown)
Found: ≥ 4.70

Lookup: Would you mind telling me what pIC50 value was observed for Cc1cc(F)ccc1-c1cnc(C(O)(CCS(=N)(=O)CC[C@H](N)C(=O)O)C(F)(F)F)nc1 (stereo partly shown) ?
Found: 2.70 to 4.70

Lookup: Entry N=S(=O)(CCC(c1ccc(CCC(F)(F)F)cc1)C(F)(F)F)CC[C@H](N)C(=O)O (stereo partly shown) : reported pIC50 = ?
Found: ≥ 4.70

Lookup: GET /values?readout=pIC50&item= N#Cc1cccc(-c2ccc(C(CCS(=N)(=O)CC[C@H](N)C(=O)O)C(F)(F)F)cc2)c1F (stereo partly shown)
Found: ≥ 4.70

Lookup: What does the data say about its pIC50? Entry: N=S(=O)(CCC(c1ccc(-c2cc(F)ccc2Cl)cc1)C(F)(F)F)CC[C@H](N)C(=O)O (stereo partly shown)
Found: ≥ 4.70

Lookup: Given N=[S@SP2](=O)(CCC(N)C(=O)O)CCC12CC(c3ccc(C(F)(F)F)cc3)(C1)C2(F)F (stereo not shown) , state its recorded pIC50.
Found: ≥ 4.70

Lookup: Tell me the measured pIC50 of N=S(=O)(CC[C@H](N)C(=O)O)CCC(O)(c1ccc(Oc2ccccc2)cc1)C(F)(F)F (stereo partly shown) , please.
Found: ≥ 4.70

Lookup: For the molecule Cc1cc(C(O)(CCS(=N)(=O)CC[C@H](N)C(=O)O)C(F)(F)F)ccc1-c1ccc(O)c(F)c1 (stereo partly shown) , what pIC50 is on record?
Found: ≥ 4.70

Lookup: Report pIC50 for N=S(=O)(CCCC(O)(c1ccc(-c2ccccc2)cc1)C(F)(F)F)CC[C@H](N)C(=O)O (stereo partly shown) please.
Found: 2.70 to 4.70

Lookup: Quick one: pIC50 for N[C@@H](CCS(=O)(=O)CCC(O)(c1cc2ccccc2cn1)C(F)(F)F)C(=O)O (stereo partly shown) ?
Found: 2.70 to 4.70

Lookup: Given the molecule N=[S@SP2](=O)(CCC(N)C(=O)O)CCC(O)(c1ccc(N[S@SP3](=O)(=O)c2ccccc2)cc1)C(F)(F)F (stereo not shown) , what is its reported pIC50?
Found: ≥ 4.70

Lookup: Endpoint output: pIC50 of `CC(C)(C)OC(=O)[C@@H](N)CC[S@@](=N)(=O)CC[C@@H](O)C(F)(F)F` . Value?
Found: 2.70 to 4.70

Lookup: Recorded pIC50 of Cc1cc(-c2ccc(C(O)(CCS(=N)(=O)CC[C@H](N)C(=O)O)C(F)(F)F)cc2)c(C)o1 (stereo partly shown) , please.
Found: ≥ 4.70

Lookup: Which pIC50 reading was recorded for the molecule N=S(=O)(CC[C@H](N)C(=O)O)CCC(O)(c1ccc(NC(=O)c2ccsc2)cc1)C(F)(F)F (stereo partly shown) ?
Found: ≥ 4.70

Lookup: Data request, read-out pIC50, for N[C@@H](CCS(=O)(=O)NCC(O)(c1ccc(-c2ccccc2)cn1)C(F)(F)F)C(=O)O (stereo partly shown)
Found: 2.70 to 4.70

Lookup: Would you mind telling me what pIC50 value was observed for N=[S@SP2](=O)(CCC(N)C(=O)O)CCC(O)(c1ccc(Nc2nccs2)cc1)C(F)(F)F (stereo not shown) ?
Found: ≥ 4.70

Lookup: Param item = N=S(=O)(CCC(n1nccn1)C(F)(F)F)CC[C@H](N)C(=O)O (stereo partly shown) ; retrieve measured pIC50.
Found: 2.70 to 4.70

Lookup: Any idea what pIC50 was measured for C[C@](O)(CCS(=N)(=O)CC[C@H](N)C(=O)O)C(F)(F)F (single isomer, unassigned) [Compound 324] ?
Found: ≥ 4.70
